# Assay Notes: Drug uptake in mouse shaved skin at 10 mg/kg, po after 6 hrs
# Type: ADME, organism-based, Zone of skin
# Design: dose 10 mg/kg, route oral
# Condition Details: read-out: Drug uptake
Value Kind: concentration at 6 h

Test Smiles: O=C(O)Cn1nnc(-c2cc(N3CCC(Oc4cc(F)ccc4Br)CC3)no2)n1
concentration at 6 h: 70 nM
--
Test Smiles: O=C(O)Cn1nnc(-c2cnc(OCCCOc3cc(F)ccc3Br)s2)n1
concentration at 6 h: 240 nM

Field: next molecule
What value of concentration at 6 h has been reported for the following molecule? O=C(O)Cn1nnc(-c2cnc(OCCCOc3cc(OC(F)(F)F)ccc3Br)s2)n1
300 nM

---

# Assay Notes: Drug uptake in mouse liver at 0.4 mg/kg, po after 3 hrs
# Type: ADME, organism-based
# Parameters: dose 0.4 mg/kg, route oral
# Condition Details: read-out: Drug uptake
Value Kind: concentration at 3 h (nM)
State the answer as a number, implicitly in nM.

Given the molecule O=C(O)Cn1nnc(-c2cc(N3CCC(Oc4cc(F)ccc4Br)CC3)no2)n1 , what is its reported concentration at 3 h?
1600

---

# Assay Notes: Drug uptake in mouse harderian glands at 10 mg/kg, po after 6 hrs
# Type: ADME, organism-based, Harderian gland
# Set-up: dose 10 mg/kg, route oral
# Condition Details: read-out: Drug uptake
Value Kind: concentration at 6 h (nM)
Entry rule: numbers only, all in nM.

Test Smiles: O=C(O)Cn1nnc(-c2cnc(OCCCOc3cc(F)ccc3Br)s2)n1
Uom: nM
concentration at 6 h: 590

May I ask what concentration at 6 h has been recorded for O=C(O)Cn1nnc(-c2cc(N3CCC(Oc4cc(F)ccc4Br)CC3)no2)n1 ?
130

Find the recorded concentration at 6 h belonging to O=C(O)Cn1nnc(-c2cnc(OCCCOc3cc(OC(F)(F)F)ccc3Br)s2)n1 and report it.
1850

---

# Assay Notes: Oral bioavailability in C57BL/6 mouse at 10 mg/kg
# Format: ADME, organism-based, C57BL6
# Condition Details: in vivo
Value Kind: bioavailability (%)
Answer with a number only, understood to be in %.

Test Smiles: O=C(O)Cn1nnc(-c2cnc(OCCCOc3cc(F)ccc3Br)s2)n1
Uom: %
bioavailability: 32

Now examine the next entry.
# lookup: bioavailability of O=C(O)Cn1nnc(-c2cc(OCCCOc3cc(F)ccc3Br)no2)n1
10

---

# Assay Notes: Drug uptake in mouse liver at 10 mg/kg, po after 3 hrs
# Assay type: ADME, organism-based
# Design: dose 10 mg/kg, route oral
# Condition Details: read-out: Drug uptake
Quick reference: concentration at 3 h of the listed items.
Provide the reading as a plain figure in µM.

Test Smiles: O=C(O)Cn1nnc(-c2cnc(OCCCOc3cc(OC(F)(F)F)ccc3Br)s2)n1
Uom: µM
concentration at 3 h: 18.3

Which concentration at 3 h is listed for O=C(O)Cn1nnc(-c2cnc(OCCCOc3cc(F)ccc3Br)s2)n1 ?
28.6

---

# Assay Notes: Stability in mouse hepatocytes assessed as compound remaining after 2 hrs
# Format: ADME, cell-based, Hepatocyte
# Condition Details: read-out: Stability
Value Kind: remaining at 2 h (%)
# unit: % | format: bare number

GET /values?readout=remaining at 2 h&item= O=C(O)Cn1nnc(-c2cc(OCCCOc3cc(F)ccc3Br)no2)n1
75

Origin of measurements: ChEMBL document CHEMBL1949632
